# Experimental Target: T1, human Y4 receptor (human, UniProt P50391 1-375)
# T1 construct: whole, on cells; transiently expressed in COS-7 cells; membranes used
# T1 sequence (P50391 whole entry): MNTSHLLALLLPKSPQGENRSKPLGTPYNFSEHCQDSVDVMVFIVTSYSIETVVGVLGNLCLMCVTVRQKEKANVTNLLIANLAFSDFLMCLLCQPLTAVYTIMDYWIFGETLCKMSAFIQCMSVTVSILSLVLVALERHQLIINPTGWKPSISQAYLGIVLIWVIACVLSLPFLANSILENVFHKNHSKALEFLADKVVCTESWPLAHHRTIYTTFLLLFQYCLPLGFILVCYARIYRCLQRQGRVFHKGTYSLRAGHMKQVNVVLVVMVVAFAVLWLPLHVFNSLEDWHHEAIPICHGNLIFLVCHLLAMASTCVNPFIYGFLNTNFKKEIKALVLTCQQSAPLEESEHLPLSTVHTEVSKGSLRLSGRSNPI
# Experiment Summary: 125I-PYY displacement, COS-7 membranes, Ki from IC50
Where no end group is shown, it is not given here.
Endpoint: Ki (nM)

>  <Binder>
APLEPMYPGDYATHEQRAQYETQLRRYINTLTRPRY-NH2 (peptide, UniProt P06303 30-65, looked up, mature; also called rat PP) [PP, rat]

>  <Ki / nM>
0.18

$$$$
>  <Binder>
APLEPEYPGDNATPEQMAQYAAELRRYINMLTRPRY-NH2 (peptide, UniProt P01302 30-65, looked up, mature; also called bovine PP) [PP, bovine]

>  <Ki / nM>
0.05

$$$$

A: PAEDLARYYSALRHYINLITRQRY-NH2 (peptide, UniProt P01304 22-45, looked up, range 13-36; also called NPY13-36, porcine) [porcine NPY13-36]
B: APSEPHHPGDQATQDQLAQYYSDLYQYITFVTRPRF-NH2 (also called frog PP) [PP, frog]
Lab notebook, comparison: A versus B , higher Ki goes to which? Identify your selection by its label.
B
(B: 61 nM, A: 38 nM)

P: YYSALRHYINLITRQRY-NH2 (peptide, UniProt P01304 29-45, looked up, range 20-36; also called NPY20-36, porcine) [porcine NPY20-36]
Q: DLARYYSALRHYINLITRQRY-NH2 (peptide, UniProt P01304 25-45, looked up, range 16-36; also called NPY16-36, porcine) [porcine NPY16-36]
Returns: the argument ( P or Q ) having the larger Ki. Please respond with the label that marks your chosen entry.
P
(P: 120 nM, Q: 54 nM)

These measurements were taken from patent US6420532B1.
